System: RXF 393 renal
Experiment: NCI tumour cell line growth inhibition, 48 h
Group membership follows TGI per the scheme band A (below 6 µM), band B (6 µM to below 60 µM), band C (60 µM or more)

Here are 3 compounds together with their reported answers.
COc1c(B(O)O)cccc1-c1nc2c(F)cc3n[nH]c(C)c3c2c2c1CCCC2: band A
Nc1c(C(=O)Nc2cccc(C(F)(F)F)c2)sc2nc3c(cc12)CCCCCC3: band A
OC(Cc1cc(CC(O)(C(F)(F)F)C(F)(F)F)nc(CC(O)(C(F)(F)F)C(F)(F)F)c1)(C(F)(F)F)C(F)(F)F: band A

Inquiry: Consider "CC(C)C(/C=C/c1ccc(Cl)cc1)=N\NC(=O)N/N=C(/C=C/c1ccc(Cl)cc1)C(C)C" . To which TGI class does it belong?
Reply text: band C

Inquiry: Just checking, what class would you give "O=C(Nc1ccc(Cl)cc1)c1cc(S(=O)(=O)N2CCNNC2=O)c(S)cc1Cl" here?
Reply text: band B

Inquiry: Which bin, given its TGI, does "CN1CCN(CCC=C2c3ccccc3Sc3ccc(S(=O)(=O)N(C)C)cc32)CC1" occupy?
Reply text: band A

Inquiry: Class for "O=C(/C=C/C=C/c1ccc2c(c1)OCO2)N/N=C\c1ccc(O)cc1O" ?
Reply text: band B

Inquiry: Where would "CCCCCCCCCCCCc1ccsc1-c1ccc(-c2ccc(-c3sccc3CCCCCCCCCCCC)s2)s1" land among the classes by reported TGI?
Reply text: band C

====

A collection of compounds and their measured TGI
Tested on: BT-549 breast
Assay: NCI tumour cell line growth inhibition, 48 h

Here are 5 compounds together with their reported answers.
COCCCNc1c2ccccc2nc2ccccc12: 53.2 µM
Cn1c(=O)c2c(=O)cc(N)[nH]c2n(C)c1=O: > 100 µM
CC(=O)N[C@@H](Cc1ccc(OP(=O)(O)O)cc1)C(=O)N[C@H]1CCC(=O)N2CCC[C@@H](C(=O)NC3CCc4ccccc43)N2C1=O (some centres not stated): > 25 µM
CCOC(=O)c1cc([N+](=O)[O-])c(Sc2ncnc3nc[nH]c23)c([N+](=O)[O-])c1: 20.1 µM
CC1(C)[C@H]2Cc3cc4nc5ccccn5c4cc3[C@@H]1C2: 41.5 µM

The compound listed as CCOC(=O)CC1Nc2ccccc2C12CCc1c([nH]c3ccccc13)C2C(=O)OCC (configuration not stated) has a reported TGI of > 100 µM

Lab note: measured TGI of "S=C(S)NCCN1CCNCC1" was > 100 µM

====

Test system: 786-0 renal
Test: NCI tumour cell line growth inhibition, 48 h; in the data active = GI50 below about 0.43 µM; inactive = the rest
Write down the outcome that applies. Available outcomes: active, inactive

Here's what some known entries look like.
Cc1cc(-c2cc(OC(=O)c3ccccc3)ccc2Cl)cc2nnc(Nc3ccc(OCCN4CCCC4)cc3)nc12: inactive
CCC(C)C1NC(=O)C(NC(=O)C(CC(C)C)N(C)C(=O)[C@@H]2CC(O)CN2C(=O)[C@H](C)O)C(C)OC(=O)[C@H](Cc2ccc(OC)cc2)N(C)C(=O)[C@@H]2CCCN2C(=O)[C@H](CC(C)C)NC(=O)C(C)C(=O)[C@H](C(C)C)OC(=O)CC1O (stereo partly specified): active
Cc1c(C(=O)c2ccccc2)[n+](=O)c2cc(F)c(F)cc2n1[O-]: inactive
COc1c(B(O)O)cccc1-c1nc2c(F)cc3n[nH]c(C)c3c2c2c1CCCC2: inactive
COc1ncc(-c2ccc3nccc(C#CCCCCC(=O)NO)c3c2)cc1NS(=O)(=O)c1ccc(F)cc1F: active

Field: next molecule
Inquiry: In this assay, the call recorded for CC1[C@@H]2CC=C3[C@H]4CCC5Cc6nc7c(nc6C[C@@]5(C)C4CC(=O)[C@]32CO[C@]12OC(C)(C)CC2O)CC1CC[C@@H]2C3=C[C@H]4O[C@@]5(O[C@@](C)(CO)C[C@@H]5O)C(C)[C@@]4(O)[C@]3(C)[C@@H](O)CC2[C@]1(C)C7 (stereo partly specified) was what?
Reply text: active

====

Form field: log10 of TGI (one value per entry).
Test system: T-47D breast
Assay: NCI tumour cell line growth inhibition, 48 h
A value of 2 here means TGI of 100 in µM, since values are log10.

O=C1c2ccc3c4c(ccc(c24)C(=O)N1CCNCc1ccccc1)C(=O)N(CCNCc1ccccc1)C3=O: 0.55

Recorded log10 of TGI (molecule "CN(C)C1CN(C(=O)c2cc(-c3ccc4ncnc(N5CCc6cc(F)c(Cl)cc65)c4c3)cnc2N)C1" ): 0.74

Please fill in: log10 of TGI reported for "CCN(CC)CCSc1c(C(C)=O)c(=O)n(-c2ccccc2)c(=S)n1-c1ccccc1" = 0.92

Documented log10 of TGI of "C/C(=N\O)c1cccc(Nc2c3ccccc3nc3occc23)c1" : 1.34

log10 of TGI recorded for this molecule, "C#CCNC(=O)CC[C@@H](C)[C@H]1CC[C@H]2[C@@H]3CC[C@@H]4CC(=O)CC[C@]4(C)[C@H]3CC[C@]12C" , is 1.83

// log10 of TGI lookup, molecule = Cc1cc(C)c2c(c1)N(C)c1ncnc(-n3cnc4cc(C)ccc43)c1CC2C (stereo unspecified) , result: 1.40

log10 of TGI reading for "Cc1c(C(=O)c2ccccc2)[n+](=O)c2cc(F)c(F)cc2n1[O-]" : 1.30

====

Test system: SNB-75 CNS
Experiment: NCI tumour cell line growth inhibition, 48 h
Numbered stars: 1 amine (or outer) side, 2 acyl side, 3 side chain; on linkers, the order of the positions; unused ones are H or OH. Bridge positions count the residues as written; N and C are the ends. Square brackets hold non-standard residues; d marks the D form. Peptide text beside a SMILES is read from it. I, II: the chains in the order shown. Actinocin(9to1) = Cc1c2oc3c(C)ccc(C(=O)[*:1])c3nc-2c(C(=O)[*:2])c(N)c1=O; aThr = C[C@H](O)[C@H](N)C(=O)O; NMeV = CN[C@H](C(=O)O)C(C)C; Sar = CNCC(=O)O
metric: TGI

Cc1cccc(-c2nc(-c3cnccn3)n(Cc3ccccc3)n2)c1: 30.2 µM
COc1ccc([C@@H]2OC(=O)C3C2C(=O)O[C@H]3c2ccc(OC)cc2)cc1 (stereo not given in full): > 100 µM
COc1cccc(/C=N/[N-]C(N)=O)c1[O-].[Co+2].[OH3+].c1ccncc1: > 100 µM

Reported TGI of CCc1ccccc1NC(=O)C(=O)C1C(=O)N(c2ccccc2)N=C1N (stereo not given) : > 100 µM

The molecule identified as Cc1c2oc3c(C)ccc(C(=O)N[C@@H]4C(=O)N[C@H](C(C)C)C(=O)N5CCC[C@H]5C(=O)N(C)CC(=O)N(C)[C@@H](C(C)C)C(=O)O[C@H]4C)c3nc-2c(C(=O)N[C@@H]2C(=O)N[C@H](C(C)C)C(=O)N3CCC[C@H]3C(=O)N(C)CC(=O)N(C)[C@@H](C(C)C)C(=O)O[C@H]2C)c(N)c1=O (I: [aThr][dV]P[Sar][NMeV] / II: [aThr][dV]P[Sar][NMeV]; ester I:1-I:C, II:1-II:C; linker I:N-II:N via Actinocin(9to1)) registered its TGI at 24.6 nM [middle of 6 runs]

Lab note: O=C1OCC2=C1C(c1cccc(Cl)c1)c1cc3c(cc1N2CCO)CCC3 (stereo not given) gave TGI of 17.7 µM

// "O=C1N[C@H](C(=O)O)[C@@H](c2ccc(OCc3ccccc3)cc2)O1" : TGI value = 28 µM

The recorded TGI for O=C(OCC(OC(=O)c1ccccc1)C1CC(C2(O)CCCCC2)C(=O)O1)c1ccccc1 (stereo not given) is > 25 µM

Measured TGI of CCN(CC)CC(O)c1cc(-c2ccc(Cl)cc2)nc2c(C)c(Cl)ccc12 (stereo not given) : 2.65 µM

// field: TGI; key: "Cc1c(C#N)c2nc3ccccc3n2c(=O)/c1=C/Nc1ccc(Cl)cc1" ; value = 23.1 µM

# molecule Clc1ccccc1C1SCc2nc3ccccc3n21 (stereo not given) ; its TGI = 11.3 µM

====

Tested on: HOP-62 NSCLC
Test: NCI tumour cell line growth inhibition, 48 h
Decision: TGI >= 20 µM yields class 1, all other cases yield class 0.

CN1CCc2c(sc3ncn(Nc4ccc(F)cc4)c(=N)c23)C1: class 1
CC1(C)C(CC(=O)O)CCCC1CC(=O)O (stereo not drawn): class 1

Continue with the molecule presented below.
Inquiry: hey, is TGI for this one >= 20 µM? "Nc1ncnc2c1ccn2-c1cccc(NC(=O)c2ccc(N3CCOCC3)c(C(F)(F)F)c2)c1"
Reply text: class 0

====

Tested on: TK-10 renal
Assay: NCI tumour cell line growth inhibition, 48 h
Please note: Fulfilled applies when TGI is 30 µM or greater, and Not fulfilled applies otherwise.

Inquiry: Check the entry "c1cc(CSc2ncnc3nc[nH]c23)ccn1" : does TGI equal or exceed 30 µM?
Reply text: Fulfilled

Inquiry: Determine whether measured TGI meets or exceeds 30 µM for Cc1cc(Cl)cc2c1NC(=O)C2(O)C(C(=O)c1ccccc1)c1ccccc1 (centres undefined)
Reply text: Fulfilled

Inquiry: Decide: TGI of CC[C@@H](C)/C=C(C)/C=C/C(=O)c1c(O)c(-c2ccc(O)cc2)cn(OC2CC(=O)CCC(C)OC(=O)CC2O)c1=O (some centres undefined) >= 30 µM?
Reply text: Not fulfilled

Inquiry: Please indicate if the recorded TGI for "COc1c(B(O)O)cccc1-c1nc2c(F)cc3n[nH]c(C)c3c2c2c1CCCC2" meets or exceeds 30 µM.
Reply text: Fulfilled

Inquiry: Exam item: decide whether the reported TGI for "NC(=O)c1csc(-c2ccc(CO)o2)n1" is at least 30 µM.
Reply text: Fulfilled

Inquiry: Could you please find out whether "COc1cc(N(CCCl)CCCl)ccc1/C=N\NC(=O)c1cccnc1" has TGI that meets 30 µM or exceeds it?
Reply text: Fulfilled

Inquiry: For this compound, is measured TGI 30 µM or higher? "Cc1ccc(S(=O)(=O)Nn2c(S)c(C#N)c(-c3ccc(Cl)cc3)c(C#N)c2=O)cc1"
Reply text: Fulfilled

Inquiry: TGI >= 30 µM for CCN(CC)CC(O)c1cc(-c2ccc(Cl)cc2)nc2c(C)c(Cl)ccc12 (centres undefined) ?
Reply text: Not fulfilled
